target_desc: chemokine receptors on THP-1 cells
measurement_notes: cell-based or functional assay
Ends that are not written are not given here.
result_type: ED50 for inhibition of THP-1 migration versus MCP1 (µM)

Consider the worked cases shown below.
WVQ [Peptide 3(10-12)[MCP-1], i.e., WVQ] | 8
EICADPKQKWIQ [Ile11peptide 3(1-12)[MCP-1]] | 6
EICLDPKQKWVQ [Leu4peptide 3(1-12)[MCP-1]] | 8
CADPKQKWVQ (also called Pep3[3-12]; Pep3(3-12)[MCP-1]) [peptide 3(3-12)[MCP-1]] | 8

A. EICADPSEEWVQ (not fully specified, also called Ser7Glu8Glu9pep3) [Ser7Glu8Glu9peptide 3(1-12)[MCP-1]]
B. EICLDPKQKWIQ (also called Leu4Ile11pep3; Leu4Ile11peptide 3[MCP-1]) [Leu4Ile11peptide 3(1-12)[MCP-1]]
C. EICADP [peptide 3(1-6)[MCP-1]]
Query: Order the items by recorded ED50 for inhibition of THP-1 migration versus MCP1; the first position goes to the largest value. Provide the labels, sequenced as the question asks.
Reply: C, A, B
